study-target: Recombinant human FAP (Homo sapiens, UniProt Q12884)
Construct: purchased R&D systems
Sequence (Q12884 whole entry): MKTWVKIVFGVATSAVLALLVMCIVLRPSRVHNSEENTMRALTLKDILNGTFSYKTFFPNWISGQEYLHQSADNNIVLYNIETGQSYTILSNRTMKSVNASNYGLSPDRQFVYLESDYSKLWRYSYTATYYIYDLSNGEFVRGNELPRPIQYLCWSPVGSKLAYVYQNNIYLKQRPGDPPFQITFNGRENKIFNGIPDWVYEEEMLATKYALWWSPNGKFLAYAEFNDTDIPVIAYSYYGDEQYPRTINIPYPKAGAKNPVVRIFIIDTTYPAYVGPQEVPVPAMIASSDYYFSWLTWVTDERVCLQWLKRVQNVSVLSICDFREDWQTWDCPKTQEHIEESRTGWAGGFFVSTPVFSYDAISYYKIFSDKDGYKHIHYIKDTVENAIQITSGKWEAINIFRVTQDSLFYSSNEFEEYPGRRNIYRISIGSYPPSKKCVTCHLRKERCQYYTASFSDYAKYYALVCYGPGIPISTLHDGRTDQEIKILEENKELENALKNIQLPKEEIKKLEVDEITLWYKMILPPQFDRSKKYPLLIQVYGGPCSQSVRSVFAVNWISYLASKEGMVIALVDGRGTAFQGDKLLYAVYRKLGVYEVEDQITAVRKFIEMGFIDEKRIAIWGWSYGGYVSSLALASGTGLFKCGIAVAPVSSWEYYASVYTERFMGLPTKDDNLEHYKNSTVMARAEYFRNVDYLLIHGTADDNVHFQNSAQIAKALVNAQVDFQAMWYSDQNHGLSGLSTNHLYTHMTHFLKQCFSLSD
assay-explanation: FAP FRET assay, FGF21-sequence FRET peptide substrate
Assay type: biochemical
test-settings: FRET peptide with human FGF21 sequence, 6 μM, 37° C.
measurement-kind: IC50 (nM)

P: CCOc1ccc(N[C@H]2CCN(CC(=O)N3CCC[C@H]3C#N)C2)c2cccnc12
Q: N#C[C@@H]1C[C@H](F)CN1C(=O)CN1CC[C@H](Nc2ccc(C(=O)Nc3ccccc3)c3ncccc23)C1
Query :: Higher IC50: P or Q ? State the label of the item chosen.
Result :: P
(P: 4.4 nM, Q: 1 nM)

A: N#C[C@@H]1C[C@H](F)CN1C(=O)CN1CCC(Nc2ccnc3c(Cl)cccc23)CC1
B: N#C[C@@H]1C[C@H](F)CN1C(=O)CN1CCC(Nc2cnc3ncccc3c2)CC1
C: N#C[C@@H]1CCCN1C(=O)CN1CCC(Nc2ccc(C(=O)Nc3ccccn3)c3ncccc23)CC1
D: Cc1cccc2c(N[C@@H]3CCN(CC(=O)N4C[C@@H](F)C[C@H]4C#N)C3)ccnc12
Query :: Rank descending by IC50. // format: requested-order list of labels
Result :: B, D, A, C
(B: 36.7 nM, D: 16.7 nM, A: 6 nM, C: 1.5 nM)

###

study-target: Recombinant human FAP (Homo sapiens, UniProt Q12884)
Construct: purchased R&D systems
assay-explanation: FAP FRET assay, FGF21-sequence FRET peptide substrate
Format: biochemical
test-settings: FRET peptide with human FGF21 sequence, 6 μM, 37° C.
measurement-kind: IC50 (nM)

compound: COc1cc2c(NC3CCN(CC(=O)N4C[C@@H](F)C[C@H]4C#N)CC3)cccc2cn1 [Example 355]
study-target: Recombinant human FAP (Homo sapiens, UniProt Q12884)
measurement-kind: IC50
test-result: 2.5

a: N#C[C@@H]1C[C@H](F)CN1C(=O)CN1CC[C@@H](Nc2cc(Cl)c3ncccc3c2)C1 [Example 215]
b: CN(Cc1ccccc1)C(=O)c1cnc2cccc(NC3CCN(CC(=O)N4C[C@@H](F)C[C@H]4C#N)CC3)c2c1 [Example 389]
c: Cc1ccc2ncc(N(C)C3CCN(CC(=O)N4C[C@@H](F)C[C@H]4C#N)CC3)cc2c1 [Example 326]
Query :: Output the entries ranked by IC50 from maximum down to minimum. Please reply with the labels ordered as requested. Many thanks.
Result :: b, c, a

###

study-target: recombinant human DPP8 (Homo sapiens, UniProt Q6V1X1)
Construct: purchased PBS Bioscience
Sequence (Q6V1X1 whole entry): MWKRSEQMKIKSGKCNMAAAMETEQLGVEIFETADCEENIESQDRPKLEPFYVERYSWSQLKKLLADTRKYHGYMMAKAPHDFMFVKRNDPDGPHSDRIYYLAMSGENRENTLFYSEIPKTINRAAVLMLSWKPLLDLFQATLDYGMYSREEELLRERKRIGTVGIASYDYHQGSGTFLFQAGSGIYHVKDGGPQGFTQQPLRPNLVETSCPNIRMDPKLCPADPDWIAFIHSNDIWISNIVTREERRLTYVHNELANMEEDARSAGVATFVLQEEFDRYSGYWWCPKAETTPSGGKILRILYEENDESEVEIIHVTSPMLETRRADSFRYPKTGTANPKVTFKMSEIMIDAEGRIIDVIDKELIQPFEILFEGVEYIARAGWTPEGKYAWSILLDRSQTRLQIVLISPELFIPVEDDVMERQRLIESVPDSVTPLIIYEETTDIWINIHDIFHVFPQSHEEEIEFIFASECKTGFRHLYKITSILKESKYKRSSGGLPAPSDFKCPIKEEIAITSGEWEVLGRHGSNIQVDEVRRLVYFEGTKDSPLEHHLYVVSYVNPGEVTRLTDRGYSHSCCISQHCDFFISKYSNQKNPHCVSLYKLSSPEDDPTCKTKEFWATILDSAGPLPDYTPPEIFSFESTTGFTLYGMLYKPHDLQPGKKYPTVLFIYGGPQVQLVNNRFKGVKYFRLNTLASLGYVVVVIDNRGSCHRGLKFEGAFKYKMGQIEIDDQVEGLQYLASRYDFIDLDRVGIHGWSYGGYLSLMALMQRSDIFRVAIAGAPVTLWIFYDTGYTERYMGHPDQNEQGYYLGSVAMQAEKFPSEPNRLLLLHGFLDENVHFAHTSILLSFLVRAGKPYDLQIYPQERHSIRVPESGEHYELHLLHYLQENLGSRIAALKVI
assay-explanation: DPP8 inhibition, fluorogenic substrate Z-Ala-Pro-AMC
Assay type: biochemical
test-settings: recombinant human DPP8
measurement-kind: IC50 (µM)

Sample answers from the record:
molecule: Cc1ccc2ncccc2c1N[C@H]1CCN(CC(=O)N2C[C@@H](F)C[C@H]2C#N)C1 [Example 259]
IC50, µM: 18.6
//
molecule: N#C[C@@H]1C[C@H](F)CN1C(=O)CN1CCC(Nc2ccc(C(=O)Nc3ccncc3)c3ncccc23)CC1 [Example 406]
IC50, µM: 0.0233

a: COc1cc2nc(Cl)nc(NC3CCN(CC(=O)N4CCC[C@H]4C#N)CC3)c2cc1OC [Example 358]
b: N#C[C@@H]1C[C@H](F)CN1C(=O)CN1CC[C@H](Nc2ccc3ncccc3c2)C1 [Example 250]
Query :: Please let me know which one, a or b , has a lower measured IC50 value. Field: selected label. Fill in the label of the entry you choose.
Result :: b
(b: 2.28 µM, a: 30 µM)

Attribution: patent US11655235B2
